Give Kd for every item shown.
experimentalTarget: T1, cMyc-tagged C-terminal TIR domain of TLR2 protein (cTLR2), purified recombinant protein (mouse, UniProt Q9QUN7 640-784)
T1 construct: TLR2, mouse, C-terminal TIR domain, amino acids 640-784; subcloned from the full-length construct pLenti-cMyc-DDK/Tlr2 (Origene); also called cMyc-tagged cTLR2 recombinant protein; TLR2 (in the SPR methods)
T1 sequence (Q9QUN7 640-784): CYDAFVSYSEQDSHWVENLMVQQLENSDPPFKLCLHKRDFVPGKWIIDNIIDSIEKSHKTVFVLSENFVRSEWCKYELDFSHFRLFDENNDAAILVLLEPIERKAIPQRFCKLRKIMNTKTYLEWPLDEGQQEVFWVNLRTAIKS
testSummary: SPR; cTLR2 (0.8 mg/ml, PBS) immobilised on a 500-kDa carboxymethyl dextran gold sensor slide (Reichert 4SPR); WT TIDM and mTIDM peptides injected in PBS running buffer, 30 μl/min, 2.5 min association, 3 min dissociation; KD from the response at equilibrium versus peptide concentration
conditionDetails: both partners purified
Numbers only, in µM.

binder="DRQIKIWFQNRRMKWKKPGWHQD (Drosophila; MyD88, mouse, residues 245-250 of the CD loop with two underlined mutations (A to W, K to D); positions 247 and 250 counted from the printed limits 245 and 250; also called mTIDM) [mutated TIDM peptide]" unitofmeasure=µM valueobserved=19

Identify measured Kd corresponding to DRQIKIWFQNRRMKWKKPGAHQK (Drosophila; the printed order is kept)
8
